Test system: Bacteroides thetaiotaomicron
Test: Antibacterial activity against Bacteroides thetaiotaomicron by CLSI M11-A7 agar dilution method
Format: functional
# MIC50 per entry
Give the value, in units of µg/mL, as a plain number.

| compound | MIC50, µg/mL |
| --- | --- |
| CC(=O)NC[C@H]1CN(c2ccc(N3CCOCC3)c(F)c2)C(=O)O1 | 4 |
| C[C@@H](O)[C@H]1C(=O)N2C(C(=O)O)=C(SCCNC=N)C[C@H]12 [IMIPENEM ANHYDROUS] | 0.5 |
| Cc1ncc([N+](=O)[O-])n1CCO | 1 |

Let us examine a further case.
For this compound ( Cn1nnc(-c2ccc(-c3ccc(N4C[C@H](CO)OC4=O)cc3F)cn2)n1 ), measured MIC50 is 2
